Origin of values: patent US20250250357A1

target.under.test: T1, human MSLN-R3 protein expressed on HEK293T cells (HEK293T-hMSLN-R3) (human, UniProt Q13421 487-606)
T1 construct: C-terminal limit uncertain
protocol.summary: FACS on HEK293T-hMSLN-R3 cells;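 also: chimeric antibodies incubated with cells on ice for 2 h, binding read by flow cytometry as mean fluorescence intensity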

{"binder": "S009-F8-12.13 (antibody, human IgG1, kappa, V domains shown, human-murine chimeric antibody, human IgG1/kappa constant regions) VH: QVQLQQPGAELVKPGASVKLSCKASGYTFTSYWMHWVKQRPGQGLEWIGMIHPNSGSTNYNEKFKSKATLTVDKSSSTAYMQLSSLTSEDSAVYYCARRTPIITLVGHWYFDVWGTGTTVTVSS VL: DIVMTQSHKFMSTSVGDRVSITCKASQDVGTAVAWYQQKPGQSPKLLIYWASTRHTGVPDRFTGSGSGTDFTLTISNVQSEDLADYFCQQYSSYPLTFGAGTKLELKR", "binding result": "no binding"}
{"binder": "S009-F8-13.8 (antibody, human IgG1, kappa, V domains shown, human-murine chimeric antibody, human IgG1/kappa constant regions) VH: EFQLQQSGPELVKPGASVKISCKASGYSFTDYNMNWVKQTNGKSLEWIGIINPNYGTSSYNQKFKGKATLTVDQSSSTAYMQLNSLTSEDSAVYYCARVGRDNSGFDYWGQGTTLTVSS VL: QIVLTQSPAIMSASPGEKVTMTCSASSSVSYMYWYQQKPGSSPRLLIYDTSNLASGVPVRFSGSGSGTSYSLTISRMEAEDAATYYCQQWSSYPPTFGSGTELEIKR", "binding result": "no binding"}
{"binder": "S009-F8-4.5 (antibody, human IgG1, kappa, V domains shown, human-murine chimeric antibody, human IgG1/kappa constant regions) VH: QVQLQQPGAELVKPGASVKLSCKASGYTFTIYWMHWVKQRPGQGLEWIGMIHPNSGNTNYNEKFKSKATLTVDKSSSTAYMQLSSLTSEDSAVYYCSLIHWYFDVWGTGTTVTVSS VL: QIVLTQSPAIMSASPGEKVTMTCSASSSVSYMYWYQQKPGSSPRLLIYDTSNLASGVPVRFSGSGSGTSYSLTISRMEAEDAATYYCQQWSSYPLTFGAGTKLELKR", "binding result": "no binding"}
